Exercise: for every item that follows, state its recorded melting point.

Q: Supply measured melting point of O=C(O)c1ccccc1Nc1ccc(CCc2ccc(-c3ccccc3)cc2)cc1 [Example 129] in your reply.
Ans: 200 to 202 °C

Q: Please give measured melting point of the following entry: O=C(O)c1ccc(Nc2ccc(CCc3ccc(Cl)c(Cl)c3)cc2)c(C(=O)O)c1 [Example 144]
Ans: 264 to 266 °C

Q: For CCNc1ccc(CCCc2ccc(Nc3ccccc3C(=O)O)cc2)cc1 [Example 29] , write its melting point.
Ans: 133 °C

Q: Please look at this molecule and report its melting point: O=C(O)c1ccccc1Nc1ccc(CCCc2ccc([N+](=O)[O-])cc2)cc1 [Example 20]
Ans: 150 to 153 °C

Q: Annotate the molecule Cc1ccc(Nc2ccc(CCc3ccc(Cl)c(Cl)c3)cc2)c(C(=O)O)c1 [Example 75] with its measured melting point.
Ans: 153 to 160 °C

Q: Please look at this molecule and report its melting point: COc1cc(CCc2ccc(Nc3ccccc3C(=O)O)cc2)cc(OC)c1OC [Example 133]
Ans: 146 to 147 °C

Q: Kindly indicate its recorded melting point. Item: O=C(O)c1cc([N+](=O)[O-])ccc1Nc1ccc(CCc2ccc(F)c(C(F)(F)F)c2)cc1 [Example 69]
Ans: 190 to 193 °C

Q: Dear colleague, please send me the reported melting point for O=C(O)c1ccccc1Nc1ccc(CCc2cccc(N(Cc3ccccc3)Cc3ccccc3)c2)cc1 [Example 31] when you can.
Ans: 95.5 to 97.5 °C

Q: Give the value of melting point reported for the following: CCN(CC)Cc1ccc(CCCc2ccc(Nc3ccccc3C(=O)O)cc2)cc1 [Example 50]
Ans: 137 °C

Q: Return value of melting point for input Nc1ccc(Nc2ccc(CCCCCc3ccc(Cl)c(Cl)c3)cc2)c(C(=O)O)c1 [Example 140] , no commentary.
Ans: 182 to 184 °C

Q: Give the value of melting point reported for the following: CCN(CC)c1ccc(Nc2ccc(CCc3ccc(Cl)c(Cl)c3)cc2)c(C(=O)O)c1 [Example 151]
Ans: 106 to 110 °C

Q: Hello, please tell me recorded melting point for this one: O=C(O)c1ccccc1Nc1ccc(CCCc2cccc([N+](=O)[O-])c2)cc1 [Example 21]
Ans: 164 to 167 °C

Q: Let me know recorded melting point for O=C(O)c1ccccc1Nc1ccc(CCc2ccc(O)c(O)c2)cc1 [Example 4] , thanks.
Ans: 215 to 217 °C

====

For each entry below, report its IC50 value.
Biological target: Aβ(1-40) (Homo sapiens, UniProt P05067)
Construct: […]; purchased Bachem, Torrance, Calif
Sequence (P05067 672-711 limits assumed): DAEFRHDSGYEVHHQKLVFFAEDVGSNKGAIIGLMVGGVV
Assay: BASST (Beta-Amyloid Self-Seeding, Thioflavin T), inhibitors of self-seeded amyloid fibril growth
Assay type: biochemical
Conditions: 30 μM soluble Aβ(1-40), 37° C., 3 to 5 hours, thioflavin T fluorescence; replicate values; letter = synthetic lot; read-out: BASST (IC50 = μM)

Q: Give IC50 for the following compound: CC(=O)Nc1cccc(CCc2ccc(Nc3ccccc3C(=O)O)cc2)c1 [Example 36]
Ans: > 100 µM

Q: Please list IC50 recorded for the compound O=C(O)c1ccc(CCCc2ccc(Nc3ccccc3C(=O)O)cc2)cc1 [Example 49]
Ans: > 100 µM

Q: Look up and state reported IC50 for CCCN(CCC)c1ccc(Nc2ccc(CCc3ccc(Cl)c(Cl)c3)cc2)c(C(=O)O)c1 [Example 149]
Ans: > 100 µM

====

Biological target: Aβ (1-40) peptide (Homo sapiens)
Construct: 10 μL 0.5 mg/mL Aβ (1-40) peptide in 20% HFIP
Sequence (P05067 672-711 limits assumed): as above
Assay: BAPA (Beta-Amyloid Peptide Aggregation, pH 6.0, filtration)
Assay type: biochemical
Details: Aβ (1-40) 33 μM, pH 6.0, 2 to 4 hours at room temperature; replicate values; letter = synthetic lot
Decision: IC50 beneath 30 µM gives TRUE; IC50 meeting or exceeding 30 µM gives FALSE.

Q: Please let me know if CC(=O)Nc1ccc(CCc2ccc(Nc3ccccc3C(=O)O)cc2)cc1 shows IC50 below 30 µM.
Ans: FALSE

Q: In the record for Cc1ccc(CCc2ccc(Nc3ccc([N+](=O)[O-])cc3C(=O)O)cc2)cc1C [Example 16] , is IC50 less than 30 µM?
Ans: TRUE

Q: IC50 strictly < 30 µM for this molecule? O=C(O)c1ccccc1Nc1ccc(CCc2ccc(Cl)c(Cl)c2)cc1 [Example 118, monopotassium]
Ans: FALSE

Q: Dear reviewer, please state whether COc1ccc(CCc2ccc(Nc3ccccc3C(=O)O)cc2)cc1OC has IC50 strictly beneath 30 µM.
Ans: FALSE

Q: Take the molecule O=C(O)c1cc([N+](=O)[O-])ccc1Nc1ccc(CCCCCc2ccc(Cl)c(Cl)c2)cc1 and say whether its IC50 is less than 30 µM.
Ans: TRUE

Q: IC50 under 30 µM? Item: O=C(O)c1ccccc1Nc1ccc(CCCc2cccc([N+](=O)[O-])c2)cc1
Ans: TRUE

Q: Given CCCN(CCC)c1cccc(CCCc2ccc(Nc3ccccc3C(=O)O)cc2)c1 , is recorded IC50 strictly lower than 30 µM?
Ans: FALSE

Q: For CCN(CC)c1cccc(CCc2ccc(Nc3ccccc3C(=O)O)cc2)c1.Cl [Example 41, monohydrochloride] , is the recorded IC50 below the cut-off of 30 µM?
Ans: FALSE

====

Target: Aβ(1-40) (Homo sapiens, UniProt P05067)
Construct: […]; purchased Bachem, Torrance, Calif
Assay: BASST (Beta-Amyloid Self-Seeding, Thioflavin T), inhibitors of self-seeded amyloid fibril growth
Assay type: biochemical
Conditions: 30 μM soluble Aβ(1-40), 37° C., 3 to 5 hours, thioflavin T fluorescence; replicate values; letter = synthetic lot; read-out: BASST (IC50 = μM)
assay.metric: IC50 (µM)
Just the number please, in µM, no unit attached.

Q: Quote IC50 reported for CCN(CC)c1cccc(CCCc2ccc(Nc3ccccc3C(=O)O)cc2)c1 [Example 32] please.
Ans: 1

Q: Give IC50 for O=C(O)c1cc([N+](=O)[O-])ccc1Nc1ccc(CCc2ccccc2Cl)cc1 [Example 76]
Ans: 0.5

Q: Specify reported IC50 for the compound shown: CCCN(CCC)c1cccc(CCCc2ccc(Nc3ccccc3C(=O)O)cc2)c1 [Example 27]
Ans: 3

Q: Please give the documented IC50 of CCCCN1CCc2cc(C=C3SC(=S)N(CC(=O)O)C3=O)ccc21 [Example 56]
Ans: 3

====

Target: Aβ(1-40) (Homo sapiens)
Construct: […]; purchased Bachem, Torrance, Calif
Assay: BASST (Beta-Amyloid Self-Seeding, Thioflavin T), inhibitors of self-seeded amyloid fibril growth
Format: biochemical
Details: 30 μM soluble Aβ(1-40), 37° C., 3 to 5 hours, thioflavin T fluorescence; replicate values; letter = synthetic lot; read-out: BASST (IC50 = μM)
assay.metric: IC50

Q: Supply IC50 value. Item: Cc1cc(-c2cc(Cl)cc(Cl)c2)ccc1Nc1ccccc1C(=O)O
Ans: > 100 µM

Q: Output IC50 of COc1cc(CCc2ccc(Nc3ccccc3C(=O)O)cc2)cc(OC)c1OC
Ans: > 100 µM

Q: Identify IC50 associated with the molecule Cc1ccc(Nc2ccc(CCCc3ccc(Cl)c(Cl)c3)cc2)c(C(=O)O)c1
Ans: > 100 µM
